Molecular target: UniProtKB Q9Y6E0
Sequence (Q9Y6E0 whole entry, species assumed): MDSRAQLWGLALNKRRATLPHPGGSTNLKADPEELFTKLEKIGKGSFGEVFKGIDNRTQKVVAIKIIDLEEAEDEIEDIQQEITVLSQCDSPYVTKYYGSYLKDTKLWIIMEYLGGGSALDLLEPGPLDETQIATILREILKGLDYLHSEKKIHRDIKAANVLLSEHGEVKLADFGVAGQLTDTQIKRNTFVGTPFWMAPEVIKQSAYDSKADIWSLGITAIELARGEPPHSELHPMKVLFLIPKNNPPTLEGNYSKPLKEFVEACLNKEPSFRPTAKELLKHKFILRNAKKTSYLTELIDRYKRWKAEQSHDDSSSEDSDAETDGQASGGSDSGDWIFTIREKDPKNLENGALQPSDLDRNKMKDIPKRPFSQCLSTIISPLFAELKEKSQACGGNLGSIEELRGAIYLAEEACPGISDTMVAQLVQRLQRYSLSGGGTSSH
Test: Kinase profiling MST3
Assay type: biochemical
Settings: 100 micromolar inhibitor concentration; 100 is no change
We begin with a simple list: items and their reported residual kinase activity, MST3.
Give the figure by itself; no unit, no explanation.

// worked examples, residual kinase activity, MST3 included
Compound | Assayed target | Outcome measure | Endpoint value
O=C(Nc1nc2ccc(O)cc2s1)c1cccnc1 [Compound 08-44] | UniProtKB Q9Y6E0 | residual kinase activity, MST3 | 76
CC(=O)Nc1nc2cc(C)ccc2s1 [Compound 03-76] | UniProtKB Q9Y6E0 | residual kinase activity, MST3 | 85
CC(=O)Nc1nc2ccccc2s1 [Compound 03-32] | UniProtKB Q9Y6E0 | residual kinase activity, MST3 | 87
O=C(Nc1nc2ccc(O)cc2s1)c1ccccn1 [Compound 03-12] | UniProtKB Q9Y6E0 | residual kinase activity, MST3 | 85
O=C(Nc1nc2cc(O)ccc2s1)c1ccccn1 [Compound 03-13] | UniProtKB Q9Y6E0 | residual kinase activity, MST3 | 78

Q: Please give measured residual kinase activity, MST3 of the following entry: O=C(Nc1nc2ccc(O)cc2s1)c1ccccc1 [Compound 03-60]
Ans: 54

Q: Quick one: give measured residual kinase activity, MST3 for O=C(Nc1nc2ccc(O)cc2s1)c1ccncc1 [Compound 08-42]
Ans: 77

Q: Output residual kinase activity, MST3 of O=C(Nc1nc2cc(O)ccc2s1)c1ccncc1 [Compound 03-11]
Ans: 92

Q: Hello, please tell me recorded residual kinase activity, MST3 for this one: O=C(Nc1nc2cc(O)ccc2s1)c1cccnc1 [Compound 03-33]
Ans: 90

###

Molecular target: PAK5 (Homo sapiens)
Sequence (Q9P286 whole entry): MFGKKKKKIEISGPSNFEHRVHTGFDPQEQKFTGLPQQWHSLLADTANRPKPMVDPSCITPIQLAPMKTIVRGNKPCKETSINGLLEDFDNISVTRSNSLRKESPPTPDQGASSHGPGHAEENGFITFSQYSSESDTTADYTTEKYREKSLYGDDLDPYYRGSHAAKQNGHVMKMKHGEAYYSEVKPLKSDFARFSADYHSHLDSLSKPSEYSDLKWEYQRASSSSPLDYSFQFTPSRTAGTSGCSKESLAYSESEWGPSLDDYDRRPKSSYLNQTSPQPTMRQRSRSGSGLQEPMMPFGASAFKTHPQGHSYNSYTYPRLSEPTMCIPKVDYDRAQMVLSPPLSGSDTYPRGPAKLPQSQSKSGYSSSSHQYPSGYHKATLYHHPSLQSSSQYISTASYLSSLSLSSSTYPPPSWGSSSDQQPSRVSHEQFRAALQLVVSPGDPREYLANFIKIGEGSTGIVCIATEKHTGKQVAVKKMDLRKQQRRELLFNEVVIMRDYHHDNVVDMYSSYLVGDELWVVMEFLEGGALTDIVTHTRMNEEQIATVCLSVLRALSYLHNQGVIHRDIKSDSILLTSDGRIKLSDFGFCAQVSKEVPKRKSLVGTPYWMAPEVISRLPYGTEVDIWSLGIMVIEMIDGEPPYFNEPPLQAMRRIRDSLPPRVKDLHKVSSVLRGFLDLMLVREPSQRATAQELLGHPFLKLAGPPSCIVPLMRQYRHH
Assay: Kinase profiling PAK5
Assay type: biochemical
Conditions: 100 micromolar inhibitor concentration; 100 is no change; read-out: residual kinase activity, PAK5
Outcome measure: remaining activity at 100 µM (%)
Give just the numeric value; % need not be written.

Below: 4 molecules and their reported remaining activity at 100 µM.
Line notation | Endpoint value
CC(=O)Nc1nc2ccc(C#N)cc2s1 | 70
COc1ccc2sc(NC(C)=O)nc2c1 | 110
CC(=O)Nc1nc2cc(F)ccc2s1 | 111
CC(=O)Nc1nc2cc(C(F)(F)F)ccc2s1 | 85

Q: Fill in remaining activity at 100 µM for record CC(=O)Nc1nc2ccc(O)cc2s1
Ans: 85

Q: Return remaining activity at 100 µM (reported value) for this molecule: CC(=O)Nc1nc2ccc(C(F)(F)F)cc2s1
Ans: 82

###

Biological target: TAO1 (Homo sapiens)
Sequence (Q7L7X3 whole entry): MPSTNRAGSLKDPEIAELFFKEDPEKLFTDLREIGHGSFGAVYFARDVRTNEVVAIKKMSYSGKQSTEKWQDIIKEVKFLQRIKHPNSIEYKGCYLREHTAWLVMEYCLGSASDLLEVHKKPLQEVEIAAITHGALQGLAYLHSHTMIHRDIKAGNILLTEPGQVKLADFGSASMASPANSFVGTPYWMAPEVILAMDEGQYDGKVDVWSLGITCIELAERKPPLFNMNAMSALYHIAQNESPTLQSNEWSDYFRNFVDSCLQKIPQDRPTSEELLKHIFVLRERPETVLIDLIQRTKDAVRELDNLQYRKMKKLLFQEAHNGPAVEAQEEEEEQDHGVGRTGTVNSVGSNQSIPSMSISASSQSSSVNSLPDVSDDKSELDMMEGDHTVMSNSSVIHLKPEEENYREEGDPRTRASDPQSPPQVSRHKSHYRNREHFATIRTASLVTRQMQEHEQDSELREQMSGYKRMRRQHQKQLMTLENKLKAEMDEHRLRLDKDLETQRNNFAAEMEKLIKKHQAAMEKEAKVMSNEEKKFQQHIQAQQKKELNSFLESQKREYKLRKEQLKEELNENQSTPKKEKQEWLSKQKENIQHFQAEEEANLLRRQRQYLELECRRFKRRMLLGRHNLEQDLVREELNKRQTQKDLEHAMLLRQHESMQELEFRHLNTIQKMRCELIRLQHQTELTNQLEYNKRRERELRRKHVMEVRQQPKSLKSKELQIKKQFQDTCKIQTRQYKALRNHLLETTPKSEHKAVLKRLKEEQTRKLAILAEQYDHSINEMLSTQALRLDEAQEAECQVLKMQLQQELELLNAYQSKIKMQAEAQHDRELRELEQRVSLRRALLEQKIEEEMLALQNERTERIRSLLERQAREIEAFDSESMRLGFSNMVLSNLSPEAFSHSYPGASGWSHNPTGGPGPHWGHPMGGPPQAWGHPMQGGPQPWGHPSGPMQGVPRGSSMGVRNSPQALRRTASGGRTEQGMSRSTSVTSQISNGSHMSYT
Assay: Kinase profiling TAO1
Assay type: biochemical
Details: 100 micromolar inhibitor concentration; 100 is no change
# residual kinase activity, TAO1 values compiled below
Output: the number by itself.

Here is how some compounds turned out for residual kinase activity, TAO1.
Line notation | residual kinase activity, TAO1
O=C(Nc1nc2ccc(O)cc2s1)c1ccncc1 | 81
CC(=O)Nc1nc2ccccc2s1 | 73
CC(=O)Nc1nc2cc(C)ccc2s1 | 76
O=C(Nc1nc2cc(O)ccc2s1)c1ccncc1 | 77
O=C(Nc1nc2ccc(O)cc2s1)c1ccccn1 | 74

Q: Read the entry O=C(Nc1nc2ccc(O)cc2s1)c1ccccc1 and write its reported residual kinase activity, TAO1.
Ans: 62

Q: Identify measured residual kinase activity, TAO1 associated with O=C(Nc1nc2cc(O)ccc2s1)c1cccnc1
Ans: 87

Q: Give the reported residual kinase activity, TAO1 for this compound. O=C(Nc1nc2cc(O)ccc2s1)c1ccccn1
Ans: 80

Q: Complete the entry with residual kinase activity, TAO1 for O=C(Nc1nc2ccc(O)cc2s1)c1cccnc1
Ans: 68
